- System: KM-20L2
- Assay Details: NCI tumour cell line growth inhibition, 48 h
The source made the active and inactive calls. Rule as the data show it: active = GI50 up to about 1.1 µM and inactive = higher.

Molecule: COc1ccc(Nc2nc3c(N)cc(C(F)(F)F)cc3nc2-c2ccccc2)cc1OC
GI50: 36.9 µM (inactive)
--
Molecule: COc1ccc2occ(CCC(=O)O)c2c1
GI50: > 100 µM (inactive)
--
Molecule: CN(C)C(=O)CC(C(=O)O)c1c[nH]c2ccccc12 (centres undefined)
GI50: > 100 µM (inactive)
--
Molecule: O=C(O)CCC(=O)OCN1C(=O)C2C3C=CC(C2C1=O)C1C2C(=O)N(COC(=O)CCC(=O)O)C(=O)C2C31 (centres undefined)
GI50: > 100 µM (inactive)
--
Molecule: COC(=O)C1=C(C(=O)OC)C2(OC(C)=O)c3ccccc3-c3ccccc3C12 (centres undefined)
GI50: 6.15 µM (inactive)
--
Molecule: N#Cc1ccccc1NC(=O)/C(=N\N)C(C(=O)c1ccncc1)C1OC(=O)c2ccccc21 (centres undefined)
GI50: > 100 µM (inactive)
--
Molecule: CC(C)Cc1ccc(C(C)/C=C2\CCC(CN3CCCC3)C2=O)cc1 (centres undefined)
GI50: 14.4 µM (inactive)
--
Molecule: Cn1cc2ccccc2c1-c1nc(F)nc(OCC(=O)[C@H]2CCC3[C@@H]4CCC5=CC(=O)CC[C@]5(C)C4[C@@H](O)C[C@@]32C)n1 (some centres undefined)
GI50: 26.1 µM (inactive)
--
Molecule: N#CCCN(CCC#N)c1ccc(C(Sc2ccccc2)C(NC(=O)c2cc([N+](=O)[O-])ccc2Cl)C(=O)Sc2ccccc2)cc1 (centres undefined)
GI50: 2.57 µM (inactive)

* * *

- Tested on: 786-0
- Assay Details: NCI tumour cell line growth inhibition, 48 h
Activity calls are given as the source filed them. Rule as the data show it: active = GI50 up to about 1.1 µM and inactive = higher.
Measured GI50 accompanies every entry in the list below.

Compound: COC(=O)C1(C(=O)OC)CC2=C(S(=O)(=O)c3ccccc3)C[C@@H](C#N)[C@H]2C1
GI50: > 100 µM (inactive)
--
Compound: CC(C)Cc1ccc(C(C)/C=C2\CCC(CN3CCCC3)C2=O)cc1 (stereo unspecified)
GI50: 1.85 µM (inactive)
--
Compound: Cc1cccc(C)c1NC(=O)CCC/C(CC(=O)c1ccc(F)cc1)=N\NC(=O)C(=O)NN
GI50: > 100 µM (inactive)
--
Compound: O=C(O)c1ccccc1.[Ag]
GI50: 17.3 µM (inactive)
--
Compound: S=c1[nH]c2ccc(Br)cc2c(=S)s1
GI50: 30.8 µM (inactive)
--
Compound: Nn1c(S)nnc1CCCCCCCCc1nnc(S)n1N
GI50: > 100 µM (inactive)
--
Compound: C\C(=N/N=C1/C(=C\N(C)C)C(=O)NC(=O)N1C)c1ccc(Cl)cc1
GI50: > 100 µM (inactive)
--
Compound: CCOC(OCC)c1ccc(/C=C/c2cc(OC)c(OC)c(OC)c2)cc1
GI50: 23.3 µM (inactive)
--
Compound: NC(=O)c1ccccc1NC(=O)C(=O)C(C(=O)c1ccc(Cl)c(Cl)c1)C1OC(=O)c2ccccc21 (stereo unspecified)
GI50: 48.8 µM (inactive)
--
Compound: CC1=CC(=O)C(C(O)(C(F)(F)F)C(F)(F)F)C(C)(C)C1 (stereo unspecified)
GI50: > 10 µM (inactive)
--
Compound: CN(C)c1n/c(=N/Cc2ccccc2)ss1
GI50: > 6.82 µM (inactive)
